Below, each entry is listed with its recorded Binding affinity (log IC50 value).
Test system: bfGnRHR-3
Assay: Ligand-receptor binding assay, I125-GnRH-2 competition, membranes of GH3 cells expressing bfGnRHR-3
Design: species or system bullfrog
Conditions: log of IC50 (negative values); competition with I125-GnRH-2, 4° C., 16 hours
Where a SMILES comes first, the peptide text is derived from it. [ ]: non-standard residue; d: D form. dPhe(4-Cl) = N[C@H](Cc1ccc(Cl)cc1)C(=O)O; d2Nal = N[C@H](Cc1ccc2ccccc2c1)C(=O)O; dCit = NC(=O)NCCC[C@@H](N)C(=O)O; d3Pal = N[C@H](Cc1cccnc1)C(=O)O; pGlu = O=C1CC[C@@H](C(=O)O)N1
measurement name: Binding affinity (log IC50 value)

compound	measurement name	test result
CC(=O)N[C@H](Cc1ccc2ccccc2c1)C(=O)N[C@H](Cc1ccc(Cl)cc1)C(=O)N[C@H](Cc1cccnc1)C(=O)N[C@@H](CO)C(=O)N[C@@H](Cc1ccc(O)cc1)C(=O)N[C@H](CCCNC(N)=O)C(=O)N[C@@H](Cc1c[nH]c2ccccc12)C(=O)N[C@@H](Cc1ccc(O)cc1)C(=O)N1CCC[C@H]1C(=O)N[C@H](C)C(N)=O [Trptorelix-1] (Ac-[d2Nal][dPhe(4-Cl)][d3Pal]SY[dCit]WYP[dA]-NH2)	Binding affinity (log IC50 value)	−11.73 ± 0.19
NC(=O)CNC(=O)[C@@H]1CCCN1C(=O)[C@H](Cc1ccc(O)cc1)NC(=O)[C@H](Cc1c[nH]c2ccccc12)NC(=O)CNC(=O)[C@H](Cc1c[nH]cn1)NC(=O)[C@H](CO)NC(=O)[C@H](Cc1c[nH]c2ccccc12)NC(=O)[C@H](Cc1c[nH]cn1)NC(=O)[C@@H]1CCC(=O)N1 [GnRH-2] ([pGlu]HWSHGWYPG-NH2)	Binding affinity (log IC50 value)	−8.63 ± 0.14
NC(=O)CNC(=O)[C@@H]1CCCN1C(=O)[C@H](Cc1ccc(O)cc1)NC(=O)[C@H](Cc1c[nH]c2ccccc12)NC(=O)[C@@H](Cc1c[nH]c2ccccc12)NC(=O)[C@H](Cc1c[nH]cn1)NC(=O)[C@H](CO)NC(=O)[C@H](Cc1c[nH]c2ccccc12)NC(=O)[C@H](Cc1c[nH]cn1)NC(=O)[C@@H]1CCC(=O)N1 [[D-Trp^6]GnRH-2] ([pGlu]HWSH[dW]WYPG-NH2)	Binding affinity (log IC50 value)	−8.10 ± 0.11
C[C@@H](NC(=O)[C@H](Cc1c[nH]cn1)NC(=O)[C@H](CO)NC(=O)[C@H](Cc1c[nH]c2ccccc12)NC(=O)[C@H](Cc1c[nH]cn1)NC(=O)[C@@H]1CCC(=O)N1)C(=O)N[C@@H](Cc1c[nH]c2ccccc12)C(=O)N[C@@H](Cc1ccc(O)cc1)C(=O)N1CCC[C@H]1C(=O)NCC(N)=O [[D-Ala^6]GnRH-2] ([pGlu]HWSH[dA]WYPG-NH2)	Binding affinity (log IC50 value)	−9.83 ± 0.14
